Data provenance: ChEMBL document CHEMBL1806398

- Study System: Peroxisome proliferator-activated receptor alpha (Homo sapiens, UniProt Q07869)
- Sequence (Q07869 whole entry, the tested form may be a part): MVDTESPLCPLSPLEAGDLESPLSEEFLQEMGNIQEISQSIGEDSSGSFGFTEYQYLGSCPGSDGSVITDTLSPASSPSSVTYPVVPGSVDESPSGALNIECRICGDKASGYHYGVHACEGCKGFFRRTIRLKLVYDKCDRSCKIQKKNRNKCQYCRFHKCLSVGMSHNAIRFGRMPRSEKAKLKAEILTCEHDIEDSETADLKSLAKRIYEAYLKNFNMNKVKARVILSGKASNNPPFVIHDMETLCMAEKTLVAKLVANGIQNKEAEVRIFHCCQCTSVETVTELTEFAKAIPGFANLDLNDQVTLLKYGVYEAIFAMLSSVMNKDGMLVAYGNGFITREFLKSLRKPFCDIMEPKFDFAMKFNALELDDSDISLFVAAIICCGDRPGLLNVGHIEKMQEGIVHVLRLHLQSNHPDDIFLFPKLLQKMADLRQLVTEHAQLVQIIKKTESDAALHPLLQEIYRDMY
- Assay Overview: Antagonist activity at PPARalpha ligand binding domain expressed in HEK293 cells co-expressing GAL4 assessed as inhibition of GW7647-induced transactivation activity after 18 hrs by dual-luciferase assay
Observed Property: IC50

In [3]: df
Out[3]:
                                   molecule  obs_value
0  O=C(NS(=O)(=O)c1ccccc1)C(Sc1nc2cc(Cl)ccc2s1)c1ccccc1 (racemic)     6.5 µM
1  CCCC(Sc1nc2ccc(OCC)cc2s1)C(=O)NS(=O)(=O)c1ccccc1 (racemic)      31 µM
2  CCCC(Sc1nc2cc(Cl)ccc2s1)C(=O)NS(=O)(=O)c1ccccc1 (racemic)    22.2 µM
3  CC(C)C(Sc1nc2cc(Cl)ccc2s1)C(=O)NS(=O)(=O)c1ccccc1 (racemic)    27.9 µM
4  CCCCC(Sc1nc2cc(Cl)ccc2s1)C(=O)NS(=O)(=O)c1ccccc1 (racemic)    19.9 µM

---

- Study System: Peroxisome proliferator-activated receptor alpha (Homo sapiens)
- Assay Overview: Agonist activity at PPARalpha ligand binding domain expressed in HEK293 cells co-expressing GAL4 after 18 hrs by dual-luciferase activity based transactivation assay
pEC50: −log10 of the molar value.
Observed Property: pEC50

>>> df
                                   molecule  obs_value
0  CCCCCCC(Sc1nc2cc(Cl)ccc2s1)C(=O)NS(=O)(=O)c1ccccc1 (racemic)       4.30
